biological target: Caspase-8 (Homo sapiens)
Sequence (Q14790 217-374 limits assumed): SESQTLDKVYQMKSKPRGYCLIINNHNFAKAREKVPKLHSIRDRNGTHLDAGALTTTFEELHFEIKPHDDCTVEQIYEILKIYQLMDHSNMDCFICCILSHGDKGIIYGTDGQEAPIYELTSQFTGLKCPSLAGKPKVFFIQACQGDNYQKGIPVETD
Sequence (Q14790 385-479 limits assumed): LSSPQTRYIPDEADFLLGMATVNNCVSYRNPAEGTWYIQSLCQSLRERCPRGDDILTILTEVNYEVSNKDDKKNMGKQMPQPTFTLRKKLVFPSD
property-label: Ki (nM)

CC(=O)N[C@@H](Cc1ccc(O)cc1)C(=O)N[C@H](C(=O)N[C@@H](C)C(=O)N[C@@H](CC(=O)O)C(=O)CCCCCc1ccccc1)C(C)C : 18.5
CC(C)[C@H](NC(=O)CCc1ccccc1)C(=O)N[C@@H](C)C(=O)N[C@@H](CC(=O)O)C(=O)CCCc1ccccc1 : 100

====

biological target: Caspase-1 (Homo sapiens); experiment: Inhibition of caspase-1 (unknown origin) using Ac-Tyr-Val-Ala-Asp-AFC as fluorogenic substrate by fluorescence based analysis
Sequence (P29466 120-297 limits assumed): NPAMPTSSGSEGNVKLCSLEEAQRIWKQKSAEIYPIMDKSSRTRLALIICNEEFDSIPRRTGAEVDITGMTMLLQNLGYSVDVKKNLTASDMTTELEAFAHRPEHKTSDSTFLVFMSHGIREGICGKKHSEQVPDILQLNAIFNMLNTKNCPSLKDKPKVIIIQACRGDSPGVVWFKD
Sequence (P29466 317-404 limits assumed): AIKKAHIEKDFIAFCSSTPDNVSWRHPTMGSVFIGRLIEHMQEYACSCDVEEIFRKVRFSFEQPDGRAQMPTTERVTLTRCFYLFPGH
// reported IC50 for each item listed
property-label: IC50

CCCCN(CC(=O)N[C@@H](CC(=O)O)C(=O)COc1ccccc1)C(=O)[C@@H](NC(=O)c1ccc2ccccc2c1)C(C)C : 22 nM
CC(C)[C@H](NC(=O)c1ccc2ccccc2c1)C(=O)N1CCC[C@H]1C(=O)N[C@H](C=O)CC(=O)NS(C)(=O)=O : 38 nM
CC(C)[C@H](NC(=O)c1ccc2ccccc2c1)C(=O)N(CCCn1ccnc1)CC(=O)N[C@@H](CC(=O)O)C(=O)COc1ccccc1 : 13 nM
